- testedOn: androgen receptor (AR) (Homo sapiens, UniProt P10275, T878A)
- Sequence (P10275 whole entry T878A): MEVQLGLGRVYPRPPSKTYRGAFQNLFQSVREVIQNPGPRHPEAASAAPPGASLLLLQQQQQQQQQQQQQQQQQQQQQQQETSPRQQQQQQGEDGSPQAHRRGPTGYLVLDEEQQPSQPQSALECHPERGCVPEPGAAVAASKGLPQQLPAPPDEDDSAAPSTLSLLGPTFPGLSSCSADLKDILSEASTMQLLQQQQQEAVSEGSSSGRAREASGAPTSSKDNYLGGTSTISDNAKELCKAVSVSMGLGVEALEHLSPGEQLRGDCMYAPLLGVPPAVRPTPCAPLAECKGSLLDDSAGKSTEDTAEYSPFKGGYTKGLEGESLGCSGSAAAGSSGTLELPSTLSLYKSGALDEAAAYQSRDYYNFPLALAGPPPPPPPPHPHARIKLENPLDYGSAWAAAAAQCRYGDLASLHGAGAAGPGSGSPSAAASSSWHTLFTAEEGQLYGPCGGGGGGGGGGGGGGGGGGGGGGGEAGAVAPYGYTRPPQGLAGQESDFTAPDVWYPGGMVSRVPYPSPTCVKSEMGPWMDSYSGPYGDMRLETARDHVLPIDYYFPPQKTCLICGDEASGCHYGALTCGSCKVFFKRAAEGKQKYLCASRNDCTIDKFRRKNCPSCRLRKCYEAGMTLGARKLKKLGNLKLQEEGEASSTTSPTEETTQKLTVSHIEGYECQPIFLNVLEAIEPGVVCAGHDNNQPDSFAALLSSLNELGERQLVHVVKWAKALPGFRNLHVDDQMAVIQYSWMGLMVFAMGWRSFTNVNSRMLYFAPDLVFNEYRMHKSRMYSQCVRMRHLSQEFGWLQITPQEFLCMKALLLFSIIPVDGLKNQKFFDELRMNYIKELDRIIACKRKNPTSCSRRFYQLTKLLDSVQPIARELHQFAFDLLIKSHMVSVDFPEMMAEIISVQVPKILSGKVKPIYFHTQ
- Assay type: cell-based
- conditionSummary: C4-2-PSA-rl cells, 1 nM R1881
measuredMetric: activity in the PSA luciferase assay, in words

molecule	testedOn	recordedResult
Cc1ccccc1N1CCN(C(=O)C[S+]([O-])Cc2c(C)noc2C)CC1 (stereo not shown)	androgen receptor (AR) (Homo sapiens, UniProt P10275, T878A)	inactive
Cc1ccccc1N1CCC(OC(=O)NCSCc2c(C)noc2C)CC1 [20b]	androgen receptor (AR) (Homo sapiens, UniProt P10275, T878A)	inactive

---

- testedOn: androgen receptor (AR) (Homo sapiens, UniProt P10275, T878A)
- Assay type: cell-based
- conditionSummary: C4-2-PSA-rl cells, 1 nM R1881
measuredMetric: activity in the PSA luciferase assay, in words

compound	testedOn	recordedResult
Cc1cccc(N2CCN(C(=O)CSCc3c(C)noc3C)CC2)c1	androgen receptor (AR) (Homo sapiens, UniProt P10275, T878A)	loss of activity
Cc1ccccc1N1CCN(C(=O)CSc2ccccc2)CC1	androgen receptor (AR) (Homo sapiens, UniProt P10275, T878A)	abolished activity
Cc1ccccc1N1CCN(C(=O)CN(C)Cc2ccccc2)CC1 [18b]	androgen receptor (AR) (Homo sapiens, UniProt P10275, T878A)	abolished activity
Cc1ccccc1N1CCN(C(=O)COCc2c(C)noc2C)CC1 [18a]	androgen receptor (AR) (Homo sapiens, UniProt P10275, T878A)	abolished activity
Cc1ccccc1N1CCN(C(=O)[C@H]2C[C@@H]2c2ccccc2)CC1 (relative stereo)	androgen receptor (AR) (Homo sapiens, UniProt P10275, T878A)	essentially inactive
Cc1ccccc1N1CCN(C(=O)/C=C/c2ccccc2)CC1	androgen receptor (AR) (Homo sapiens, UniProt P10275, T878A)	essentially inactive
Cc1ccc(N2CCN(C(=O)CSCc3c(C)noc3C)CC2)cc1	androgen receptor (AR) (Homo sapiens, UniProt P10275, T878A)	loss of activity
